The origin of these recorded values is ChEMBL document CHEMBL1128824.

A collection of compounds and their measured IC50
target: Protein kinase C delta type (Homo sapiens, UniProt Q05655); test: Inhibition of Protein kinase C delta expressed in Sf-9 cells
Sequence (Q05655 whole entry): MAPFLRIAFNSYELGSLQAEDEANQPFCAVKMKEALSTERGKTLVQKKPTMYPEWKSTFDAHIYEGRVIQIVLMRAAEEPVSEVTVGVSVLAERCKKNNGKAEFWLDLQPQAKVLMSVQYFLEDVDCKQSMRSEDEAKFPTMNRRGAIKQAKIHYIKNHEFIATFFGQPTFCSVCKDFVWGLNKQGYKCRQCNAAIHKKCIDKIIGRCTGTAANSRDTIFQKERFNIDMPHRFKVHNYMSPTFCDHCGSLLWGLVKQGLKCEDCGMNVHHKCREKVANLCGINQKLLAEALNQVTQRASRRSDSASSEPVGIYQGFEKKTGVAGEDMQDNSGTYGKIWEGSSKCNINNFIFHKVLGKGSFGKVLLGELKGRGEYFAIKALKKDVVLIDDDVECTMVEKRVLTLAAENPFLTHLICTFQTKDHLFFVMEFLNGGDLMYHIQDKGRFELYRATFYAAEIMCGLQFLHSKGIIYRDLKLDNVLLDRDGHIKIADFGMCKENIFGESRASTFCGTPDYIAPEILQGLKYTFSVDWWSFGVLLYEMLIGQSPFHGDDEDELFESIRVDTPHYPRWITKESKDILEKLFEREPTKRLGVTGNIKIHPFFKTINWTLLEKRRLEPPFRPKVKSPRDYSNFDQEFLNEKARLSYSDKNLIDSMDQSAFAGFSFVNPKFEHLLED
QUANTITY_NAME: IC50 (nM)

                                    compound  quantity_name  readout_unit  recorded_value
 0  CCOC(=O)c1cccc(O)c1C(=O)c1c(O)cc(C(=O)O[C@@H]2CCC[C@H]2NC(=O)c2ccc(O)cc2)cc1O           IC50            nM              67
 1  CC(=O)OCOC(=O)c1cccc(O)c1C(=O)c1c(O)cc(C(=O)O[C@@H]2CNC[C@H]2NC(=O)c2ccc(O)cc2)cc1O           IC50            nM              24
 2  O=C(N[C@@H]1CNC[C@H]1OC(=O)c1cc(O)c(C(=O)c2c(O)cccc2C(=O)OCC2CCCCC2)c(O)c1)c1ccc(O)cc1           IC50            nM             310
 3  CC(C)COC(=O)c1cccc(O)c1C(=O)c1c(O)cc(C(=O)O[C@@H]2CNC[C@H]2NC(=O)c2ccc(O)cc2)cc1O           IC50            nM             200
 4  COC(=O)c1cccc(O)c1C(=O)c1c(O)cc(C(=O)O[C@@H]2CNC[C@H]2NC(=O)c2ccc(O)cc2)cc1O           IC50            nM              18
 5  CCOC(=O)c1cccc(O)c1C(=O)c1c(O)cc(C(=O)O[C@@H]2CNC[C@H]2NC(=O)c2ccc(O)cc2)cc1O           IC50            nM              50
 6  COC(=O)c1cccc(O)c1C(=O)c1c(O)cc(C(=O)O[C@@H]2CCC[C@H]2NC(=O)c2ccc(O)cc2)cc1O (stereo in doubt; 8 (+))           IC50            nM             250
 7  CC(C)(C)C(=O)OCOC(=O)c1cccc(O)c1C(=O)c1c(O)cc(C(=O)O[C@@H]2CNC[C@H]2NC(=O)c2ccc(O)cc2)cc1O           IC50            nM              10
 8  CCCCOC(=O)c1cccc(O)c1C(=O)c1c(O)cc(C(=O)O[C@@H]2CNC[C@H]2NC(=O)c2ccc(O)cc2)cc1O           IC50            nM              80
 9  COC(=O)c1cccc(O)c1C(=O)c1c(O)cc(C(=O)O[C@@H]2CCC[C@H]2NC(=O)c2ccc(O)cc2)cc1O (racemic)           IC50            nM              30
10  COC(=O)c1cccc(O)c1C(=O)c1c(O)cc(C(=O)O[C@@H]2CCC[C@H]2NC(=O)c2ccc(O)cc2)cc1O (stereo in doubt; 8 (-))           IC50            nM               5
11  CC(C)OC(=O)c1cccc(O)c1C(=O)c1c(O)cc(C(=O)O[C@@H]2CCC[C@H]2NC(=O)c2ccc(O)cc2)cc1O           IC50            nM              50
